target: GHSR1a (Homo sapiens, UniProt Q92847); test: Calcium FLIPR assay, GHSR-1a antagonism (reduction of ghrelin response); settings: HEK293/GHSR1a cells, ghrelin 10 nM
Sequence (Q92847 whole entry): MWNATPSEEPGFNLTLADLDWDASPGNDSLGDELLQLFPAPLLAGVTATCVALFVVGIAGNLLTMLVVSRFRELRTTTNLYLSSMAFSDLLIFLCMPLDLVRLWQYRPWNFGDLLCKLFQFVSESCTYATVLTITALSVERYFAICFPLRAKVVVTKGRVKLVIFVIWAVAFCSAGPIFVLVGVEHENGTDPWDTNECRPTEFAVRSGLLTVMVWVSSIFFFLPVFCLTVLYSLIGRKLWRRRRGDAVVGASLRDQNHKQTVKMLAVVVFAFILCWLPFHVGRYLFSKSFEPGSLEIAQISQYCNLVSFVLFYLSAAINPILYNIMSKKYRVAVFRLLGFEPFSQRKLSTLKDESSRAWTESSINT
readout.name: IC50 (nM)

P = CC(NC(=O)N(C)C1CCN(C)CC1)c1ccc(-c2ccsc2)c2ccccc12 (stereo not shown)
Q = CC(NC(=O)N(Cc1ccc(CO)cc1)C1CCN(C)CC1)c1ccc(-c2cn[nH]c2)c(Cl)c1Cl (stereo not shown)
R = CC(=O)/C=C(\Cl)c1ccc(C(C)NC(=O)N(C)C2CCN(C)CC2)c(Cl)c1Cl (stereo not shown)
input: Thanks in advance: please rank these 3 entries by IC50, highest to lowest. Give your ranking as a list of the labels in the requested order.
output: R, P, Q

====

pEC50 by entry:
target: UniProt Q92847; assay: Calcium FLIPR assay, GHSR-1a agonism; conditions: HEK293/GHSR1a cells
pEC50: −log10 of the molar value.

{"molecule": "CC(NC(=O)N(C)C1CCN(C)CC1)c1ccc(-c2cncc(-c3ncccn3)c2)c(Cl)c1Cl (stereo not drawn)", "pEC50": "< 4.52"}
{"molecule": "CN1CCC(N(C)C(=O)NC(COCc2cccc(CO)c2)c2ccc(-c3cncnc3)c(Cl)c2Cl)CC1 (stereo not drawn)", "pEC50": "< 4.52"}

input: Tell me pEC50 reported for CC(NC(=O)N(C)C1CCN(C)CC1)c1ccc(C(=O)Nc2cccs2)c(Cl)c1Cl (stereo not drawn)
output: < 4.52

====

biological target: GHSR1a (Homo sapiens, UniProt Q92847); assay: Calcium FLIPR assay, GHSR-1a agonism; conditions: HEK293/GHSR1a cells
readout.name: EC50 (µM)

{"compound": "CC(NC(=O)N(C)C1CCN(C)CC1)c1ccc(-c2cccnn2)c(Cl)c1Cl (stereo not shown) [Compound H0729]", "readout.name": "EC50", "quantitative.result": 0.095}
{"compound": "CC(C)C#Cc1ccc(C(C)NC(=O)N(C)C2CCN(C)CC2)c(Cl)c1Cl (stereo not shown) [Compound H0852]", "readout.name": "EC50", "quantitative.result": 0.018}
{"compound": "CC(NC(=O)N(C)C1CCN(C)CC1)c1ccc(-c2nnco2)c(Cl)c1Cl (stereo not shown) [Compound H0595]", "readout.name": "EC50", "quantitative.result": 0.043}
{"compound": "Cc1nccnc1-c1ccc(C(C)NC(=O)N(C)[C@@H]2CCN(C)CC2(C)C)c(Cl)c1Cl (stereo partly shown) [Compound H0843]", "readout.name": "EC50", "quantitative.result": 0.051}

A = CC(NC(=O)N(C)C1CCN(C)CC1)c1ccc(C#CCN2CCN(C)CC2)c(Cl)c1Cl (stereo not shown) [Compound H0812]
B = COC(=O)C(NC(=O)N(C)C1CCN(C)CC1)c1ccc(-c2cccs2)c(Cl)c1Cl (stereo not shown) [Compound H0660]
input: Lowest EC50? choose A or B // respond with label for picked entry
output: B

I = CC(NC(=O)N(C)C1CCN(C)CC1)c1ccc(-c2cnc(NC3CC3)nc2)c(Cl)c1Cl (stereo not shown) [Compound H0805]
II = CC(NC(=O)N(C)C1CCN(C)CC1)c1ccc(-c2ncccn2)c(Cl)c1Cl (stereo not shown) [Compound H0619]
input: Which value of EC50 is smaller, the one for I or the one for II ? API: response body contains the label of the selected item.
output: I

====

molecular target: GHSR1a (Homo sapiens); construct: expressed in transfected cells; host or cells: HEK293; experiment: Calcium FLIPR assay, GHSR-1a agonism; assay type: cell-based; design: unit not given here; conditions: HEK293/GHSR1a cells
readout.name: Emax

Known results for molecules:
{"molecule": "CC(=O)c1ccsc1-c1ccc(C(C)NC(=O)N(C)C2CCN(C)CC2)c(Cl)c1Cl (centres unmarked)", "Emax": 3100}
{"molecule": "CC(NC(=O)N(C)C1CCN(C)CC1)c1ccc(-c2cnn(C3CC3)c2)c(Cl)c1Cl (centres unmarked)", "Emax": 1411}
{"molecule": "CC(NC(=O)N(C)C1CCN(C)CC1)c1ccc(C#N)c2ccccc12 (centres unmarked)", "Emax": 2810}

1 = CC(NC(=O)N(C)C1CCN(C)CC1)c1ccc(-c2ccc(C#N)s2)c(Cl)c1Cl (centres unmarked)
2 = CC(NC(=O)N(C)C1CCN(C)CC1)c1ccc(-c2cnc(N3CCCC3)nc2)c(Cl)c1Cl (centres unmarked)
input: Among 1 and 2 , which shows a numerically higher Emax result? Write down the label attached to your selection.
output: 1
(1: 3424, 2: 1605)

====

molecular target: GHSR1a (Homo sapiens, UniProt Q92847); construct: expressed in transfected cells; host or cells: HEK293; assay: Calcium FLIPR assay, GHSR-1a agonism; type: cell-based; design: unit not given here; details: HEK293/GHSR1a cells
readout.name: Emax

Some solved cases for reference:
{"molecule": "COc1ccc(C(NC(=O)N(C)C2CCN(C)CC2)C(N)=O)c(Cl)c1Br (centres unmarked)", "Emax": 200}
{"molecule": "COc1ncc(-c2ccc(C(C)NC(=O)N(C)C3CCN(C)CC3)c(Cl)c2Cl)cn1 (centres unmarked)", "Emax": 1400}
{"molecule": "CC(=O)/C=C(\\Cl)c1ccc(C(C)NC(=O)N(C)C2CCN(C)CC2)c(Cl)c1Cl (centres unmarked)", "Emax": 1940}
{"molecule": "COC(=O)c1cncc(-c2ccc(C(C)NC(=O)N(C)C3CCN(C)CC3)c(Cl)c2Cl)n1 (centres unmarked)", "Emax": 1137}
{"molecule": "CCc1cncc(-c2ccc(C(C)NC(=O)N(C)C3CCN(C)CC3)c(Cl)c2Cl)c1 (centres unmarked)", "Emax": 2479}
{"molecule": "CC(NC(=O)N(C)C1CCN(C)CC1)c1ccc(CCCO)c(Cl)c1Cl (centres unmarked)", "Emax": 2660}

a = CC(NC(=O)N(C)C1CCN(C)CC1)c1ccc(-c2cccs2)c(Cl)c1Cl (single isomer, unassigned) [Compound H0564]
b = CC(NC(=O)N(C)C1CCN(C)CC1)c1ccc(-c2csc(N)n2)c(Cl)c1Cl (centres unmarked)
c = CC(NC(=O)N(C)C1CCN(C)CC1)c1ccc(C#CCc2cccs2)c(Cl)c1Cl (centres unmarked)
input: Ordering: ascending Emax. // format: requested-order list of labels
output: a, c, b

I = CC(=O)Nc1cncc(-c2ccc(C(C)NC(=O)N(C)C3CCN(C)CC3)c(Cl)c2Cl)c1 (centres unmarked)
II = CC(NC(=O)N(O)C1CCN(C)CC1)c1ccc(C(F)F)c(Cl)c1Cl (centres unmarked)
input: # compare Emax for I vs II ; return the one with the smaller value When you have decided, please share the label of that item.
output: I
(I: 1962, II: 3896)

A = CC(NC(=O)N(C)C1CCN(C)CC1)c1ccc(-c2cnc(N(C)C)nc2)c(Cl)c1Cl (centres unmarked)
B = CCN1CCN(c2ncc(-c3ccc(C(C)NC(=O)N(C)C4CCN(C)CC4)c(Cl)c3Cl)cn2)CC1=O (centres unmarked)
input: Which of the two gives a bigger number for Emax: A or B ? // respond with label for picked entry
output: A

a = CC(NC(=O)N(C)C1CCN(C)CC1)c1ccc(-c2cnc(O)nc2)c(Cl)c1Cl (centres unmarked)
b = CC(NC(=O)N(O)C1CCN(C)CC1)c1ccc(-c2cccs2)c(Cl)c1Cl (centres unmarked)
c = CC(NC(=O)N(C)C1CCN(C)CC1)c1ccc(C#Cc2cscn2)c(Cl)c1Cl (centres unmarked)
input: Rank by Emax (largest to smallest). Your task in answering is to list the labels in the requested order.
output: b, a, c
(b: 5289, a: 2879, c: 1267)

====

molecular target: GHSR1a (Homo sapiens, UniProt Q92847); experiment: Calcium FLIPR assay, GHSR-1a antagonism (reduction of ghrelin response); settings: HEK293/GHSR1a cells, ghrelin 10 nM
readout.name: IC50 (nM)

{"compound": "CC(NC(=O)N(C)C1CCN(C)CC1)c1ccc(-c2ncccn2)c(Cl)c1Cl (stereo not drawn) [Compound H0619]", "assayed.system": "GHSR1a (Homo sapiens, UniProt Q92847)", "readout.name": "IC50", "quantitative.result": 13}
{"compound": "CC(NC(=O)N(C)C1CCN(C)CC1)c1ccc(-c2cccnc2)c(Cl)c1Cl (stereo not drawn) [Compound H0496]", "assayed.system": "GHSR1a (Homo sapiens, UniProt Q92847)", "readout.name": "IC50", "quantitative.result": 10}

====

target: UniProt Q92847; assay: Calcium FLIPR assay, GHSR-1a agonism; conditions: HEK293/GHSR1a cells
pEC50: −log10 of the molar value.
readout.name: pEC50

input: Send back UniProt Q92847 pEC50 of CC(NC(=O)N(C)C1CCN(C)CC1)c1ccc(-c2cccnc2)c2ccccc12 (stereo not drawn) only.
output: < 4.52

input: For UniProt Q92847, give the measured pEC50 of the entry CCON(C(=O)NC(C)c1ccc(-c2cnccn2)c(Cl)c1Cl)C1CCN(C)CC1 (stereo not drawn)
output: < 4.52

input: System UniProt Q92847. Read-out pEC50. Item CN1CCC(N(C)C(=O)NC(CC2CC2)c2ccc(-c3cncc(N)c3)c(Cl)c2Cl)CC1 (stereo not drawn) . Report value.
output: < 4.52
